- measured-on: Tissue alpha-L-fucosidase (Bos taurus) (UniProt Q2KIM0)
- Sequence (whole entry): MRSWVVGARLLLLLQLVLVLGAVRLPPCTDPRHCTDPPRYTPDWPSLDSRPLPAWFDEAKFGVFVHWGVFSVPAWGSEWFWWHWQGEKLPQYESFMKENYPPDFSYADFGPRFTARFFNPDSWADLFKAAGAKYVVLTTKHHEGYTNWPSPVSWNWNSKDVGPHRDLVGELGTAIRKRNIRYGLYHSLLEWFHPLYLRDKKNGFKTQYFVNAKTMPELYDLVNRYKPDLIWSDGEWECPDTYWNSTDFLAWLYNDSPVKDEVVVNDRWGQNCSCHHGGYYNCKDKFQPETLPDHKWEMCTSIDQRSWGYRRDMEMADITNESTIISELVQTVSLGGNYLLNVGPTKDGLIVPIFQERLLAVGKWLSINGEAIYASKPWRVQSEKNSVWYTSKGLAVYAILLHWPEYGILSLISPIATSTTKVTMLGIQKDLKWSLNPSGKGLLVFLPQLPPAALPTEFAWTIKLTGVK
- assay-procedure: Inhibition of bovine kidney alpha-L-fucosidase assessed as reduction of p-nitrophenol release using p-nitrophenyl glycoside as substrate at 1000 uM by spectrophotometric analysis relative to control
Entries annotated with measured inhibition
# unit: % | format: bare number

**Q:** Please give the documented inhibition of OC[C@H]1N[C@H](CCCCCCCc2ccccc2)[C@@H](O)[C@@H]1O
**A:** 7.9

**Q:** Please give the documented inhibition of Cl.OC[C@@H]1N[C@@H]([C@@H](O)CCCCCCc2ccc(F)c(F)c2)[C@H](O)[C@H]1O
**A:** 23.7

**Q:** Please give the documented inhibition of Cc1ccc(CCCCCCC[C@H]2N[C@H](CO)[C@@H](O)[C@@H]2O)cc1.Cl
**A:** 8.6

---

- Tested on: Oryza sativa
- assay-procedure: Inhibition of rice alpha-glucosidase assessed as reduction of p-nitrophenol release using p-nitrophenyl glycoside as substrate at 1000 uM by spectrophotometric analysis relative to control
Give True when the value for inhibition is at least 20%. Give False when it is less.

Worked examples, 5 compounds total:
{"compound-string": "Cl.OC[C@H]1N[C@H]([C@H](O)CCCCCCc2ccc(F)cc2)[C@@H](O)[C@@H]1O", "label-class": "False"}
{"compound-string": "OC[C@H]1N[C@H]([C@@H](O)CCCCCCc2ccc(F)cc2)[C@@H](O)[C@@H]1O", "label-class": "True"}
{"compound-string": "Cl.OC[C@H]1N[C@H]([C@H](O)CCCCCCc2ccc(F)c(F)c2)[C@@H](O)[C@@H]1O", "label-class": "True"}
{"compound-string": "OC[C@@H]1N[C@@H]([C@H](O)CCCCCCc2ccc(Cl)cc2)[C@H](O)[C@H]1O", "label-class": "True"}
{"compound-string": "OC[C@H]1N[C@H](CCCCCCCc2ccc(F)c(F)c2F)[C@@H](O)[C@@H]1O", "label-class": "False"}

**Q:** // inclusive: inhibition at least 20%? input: CC(C)(C)c1ccc(CCCCCC[C@H](O)[C@H]2N[C@H](CO)[C@@H](O)[C@@H]2O)cc1
**A:** True

**Q:** // inclusive: inhibition at least 20%? input: Cc1ccc(CCCCCCC[C@H]2N[C@H](CO)[C@@H](O)[C@@H]2O)cc1.Cl
**A:** True

**Q:** // inclusive: inhibition at least 20%? input: OC[C@H]1N[C@H]([C@@H](O)CCCCCCc2ccc(F)c(F)c2)[C@@H](O)[C@@H]1O
**A:** False

**Q:** // inclusive: inhibition at least 20%? input: Cl.OC[C@H]1N[C@H]([C@@H](O)CCCCCCc2ccc(Cl)cc2)[C@@H](O)[C@@H]1O
**A:** False

**Q:** // inclusive: inhibition at least 20%? input: CC(C)(C)c1ccc(CCCCCC[C@@H](O)[C@H]2N[C@H](CO)[C@@H](O)[C@@H]2O)cc1.Cl
**A:** True

---

- assay-procedure: Inhibition of snail beta-mannosidase assessed as reduction of p-nitrophenol release using p-nitrophenyl glycoside as substrate by spectrophotometric analysis
- Set-up: species or system Helix pomatia
Entries annotated with measured pIC50
In simple prose, pIC50 is minus the logarithm base ten of a concentration in moles per litre.

Use the examples below as a reference point.
{"compound-string": "OC[C@H]1N[C@H]([C@H](O)CCCCCCc2ccc(Cl)cc2)[C@@H](O)[C@@H]1O", "measured": 4.43}
{"compound-string": "Cl.OC[C@H]1N[C@H]([C@H](O)CCCCCCc2ccc(F)c(F)c2)[C@@H](O)[C@@H]1O", "measured": 4.80}
{"compound-string": "CC(C)(C)c1ccc(CCCCCC[C@@H](O)[C@H]2N[C@H](CO)[C@@H](O)[C@@H]2O)cc1.Cl", "measured": 4.85}

**Q:** Please give the documented pIC50 of CC(C)(C)c1ccc(CCCCCC[C@H](O)[C@H]2N[C@H](CO)[C@@H](O)[C@@H]2O)cc1
**A:** 4.02

**Q:** Please give the documented pIC50 of Cc1ccc(CCCCCC[C@@H](O)[C@H]2N[C@H](CO)[C@@H](O)[C@@H]2O)cc1
**A:** 4.49

**Q:** Please give the documented pIC50 of OC[C@H]1N[C@H](CCCCCCCc2ccccc2)[C@@H](O)[C@@H]1O
**A:** 3.43

**Q:** Please give the documented pIC50 of Cl.OC[C@H]1N[C@H]([C@H](O)CCCCCCc2ccc(F)cc2)[C@@H](O)[C@@H]1O
**A:** 4.70

**Q:** Please give the documented pIC50 of O=C1CCCC=C1CCCCCCC[C@H]1N[C@H](CO)[C@@H](O)[C@@H]1O
**A:** 3.55

---

- measured-on: Alpha-mannosidase (Canavalia ensiformis) (UniProt C0HJB3)
- Sequence (whole entry): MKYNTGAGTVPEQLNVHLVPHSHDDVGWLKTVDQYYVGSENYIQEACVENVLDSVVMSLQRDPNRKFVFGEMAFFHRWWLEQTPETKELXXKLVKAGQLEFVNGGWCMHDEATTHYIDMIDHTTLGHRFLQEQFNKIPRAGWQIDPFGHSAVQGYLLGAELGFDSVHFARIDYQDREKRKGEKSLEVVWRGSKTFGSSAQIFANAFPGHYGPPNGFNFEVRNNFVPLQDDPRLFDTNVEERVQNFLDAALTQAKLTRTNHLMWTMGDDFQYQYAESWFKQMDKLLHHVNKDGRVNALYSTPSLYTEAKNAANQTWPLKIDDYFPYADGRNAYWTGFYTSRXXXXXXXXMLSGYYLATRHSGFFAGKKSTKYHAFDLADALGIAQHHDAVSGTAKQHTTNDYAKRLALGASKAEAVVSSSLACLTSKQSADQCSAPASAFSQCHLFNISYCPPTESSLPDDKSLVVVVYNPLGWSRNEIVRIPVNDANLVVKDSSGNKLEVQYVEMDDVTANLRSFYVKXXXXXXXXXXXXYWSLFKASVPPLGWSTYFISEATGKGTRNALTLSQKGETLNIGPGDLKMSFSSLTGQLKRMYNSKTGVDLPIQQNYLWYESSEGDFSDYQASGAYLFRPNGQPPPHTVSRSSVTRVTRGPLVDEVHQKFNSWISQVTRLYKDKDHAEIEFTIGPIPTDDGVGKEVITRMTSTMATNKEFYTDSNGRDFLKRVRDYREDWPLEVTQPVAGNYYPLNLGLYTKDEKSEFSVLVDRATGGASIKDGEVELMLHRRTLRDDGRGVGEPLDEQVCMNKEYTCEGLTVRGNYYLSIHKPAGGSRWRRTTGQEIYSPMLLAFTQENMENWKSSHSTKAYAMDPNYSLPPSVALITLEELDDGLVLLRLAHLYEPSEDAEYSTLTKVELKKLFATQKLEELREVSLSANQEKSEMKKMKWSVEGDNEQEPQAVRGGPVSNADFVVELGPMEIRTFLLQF
- assay-procedure: Inhibition of jack bean alpha-mannosidase assessed as reduction of p-nitrophenol release using p-nitrophenyl glycoside as substrate at 1000 uM by spectrophotometric analysis relative to control
test-readout: inhibition

Use the examples below as a reference point.
{"compound-string": "Cc1ccc(CCCCCC[C@@H](O)[C@H]2N[C@H](CO)[C@@H](O)[C@@H]2O)cc1", "measured": "5.9%"}
{"compound-string": "CC(C)(C)c1ccc(CCCCCC[C@@H](O)[C@H]2N[C@H](CO)[C@@H](O)[C@@H]2O)cc1.Cl", "measured": "8.7%"}
{"compound-string": "OC[C@@H]1N[C@@H]([C@H](O)CCCCCCc2ccc(F)cc2)[C@H](O)[C@H]1O", "measured": "4.8%"}

**Q:** // output inhibition; input OC[C@H]1N[C@H](CCCCCCCc2ccc(F)c(F)c2F)[C@@H](O)[C@@H]1O ; system Alpha-mannosidase (Canavalia ensiformis) (UniProt C0HJB3)
**A:** 0%

**Q:** // output inhibition; input Cl.OC[C@@H]1N[C@@H](CCCCCCCc2ccccc2)[C@H](O)[C@H]1O ; system Alpha-mannosidase (Canavalia ensiformis) (UniProt C0HJB3)
**A:** 14.7%

**Q:** // output inhibition; input CC(C)(C)c1ccc(CCCCCCC[C@H]2N[C@H](CO)[C@@H](O)[C@@H]2O)cc1.Cl ; system Alpha-mannosidase (Canavalia ensiformis) (UniProt C0HJB3)
**A:** 7.4%

**Q:** // output inhibition; input CC(C)(C)c1ccc(CCCCCC[C@@H](O)[C@@H]2N[C@@H](CO)[C@H](O)[C@H]2O)cc1 ; system Alpha-mannosidase (Canavalia ensiformis) (UniProt C0HJB3)
**A:** 0%
